We begin with a simple list: items and their reported EC50.
ASSAYED_TARGET: T1, human prostate specific membrane antigen (PSMA), full-length, on cells (human, UniProt Q04609 1-750)
T1 construct: also called huPSMA; human PSMA
T1 sequence (Q04609 whole entry): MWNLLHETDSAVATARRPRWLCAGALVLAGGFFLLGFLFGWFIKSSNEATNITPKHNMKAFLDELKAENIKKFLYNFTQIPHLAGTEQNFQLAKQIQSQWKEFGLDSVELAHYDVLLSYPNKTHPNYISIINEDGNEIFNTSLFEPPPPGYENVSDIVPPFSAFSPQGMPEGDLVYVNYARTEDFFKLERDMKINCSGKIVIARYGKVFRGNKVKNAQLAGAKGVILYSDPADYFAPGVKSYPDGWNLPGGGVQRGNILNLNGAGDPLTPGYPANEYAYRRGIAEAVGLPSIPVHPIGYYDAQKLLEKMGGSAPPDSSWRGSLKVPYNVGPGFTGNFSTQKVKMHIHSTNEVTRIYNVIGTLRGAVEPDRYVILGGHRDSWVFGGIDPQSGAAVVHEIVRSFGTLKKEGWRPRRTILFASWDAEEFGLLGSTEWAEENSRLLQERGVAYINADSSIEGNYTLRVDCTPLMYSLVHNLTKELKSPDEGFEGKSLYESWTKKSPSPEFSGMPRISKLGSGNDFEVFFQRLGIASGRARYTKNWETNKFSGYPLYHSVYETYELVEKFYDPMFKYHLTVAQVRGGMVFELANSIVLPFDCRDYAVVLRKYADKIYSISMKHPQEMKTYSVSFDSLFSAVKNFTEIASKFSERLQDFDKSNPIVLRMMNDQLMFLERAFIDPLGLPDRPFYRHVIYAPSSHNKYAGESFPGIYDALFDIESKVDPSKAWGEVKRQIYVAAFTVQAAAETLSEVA
ASSAY_OVERVIEW: FMAT direct cell binding, human PSMA-CHO cells
// units = nM; emit number, no label

BINDER	MEASURED_VALUE
1.18-6GS-2.22 (bispecific antibody, linker (G4S)6) EVQLLESGGGLVQPGGSLRLSCAASGFSFSSYALSWVRQAPGKGLEWVSSIGENNATTDYAASVKGRFTISRDNSKNTLYLQMNSLRVEDTAVYYCVKDGVHWGQGTLVTVSSGGGGSGGGGSGGGGSGGGGSGGGGSGGGGSEVQLVESGGGVVQPGRSLRLSCAASGFSFSGYGTHWVRQAPGKGLEWVAYISYDGSNKYYAAPVKGRFTISRDNSKNTLYLQMNSLRAEDTAVYYCAKDAAWGLRLGESSSYDFDIWGQGTMVTVSS	0.196

Now look at this entry.
INPUT: Any idea what EC50 was measured for 1.16-6GS-2.17 (bispecific antibody, linker (G4S)6) EVQLLESGGGLVQPGGSLRLSCAASGFSFSSYALSWVRQAPGKGLEWVSSIGENNHTTDYADTVKGRFTISRDNSKNTLYLQMNSLRVEDTAVYYCVKDGVHWGQGTLVTVSSGGGGSGGGGSGGGGSGGGGSGGGGSGGGGSEVQLVESGGGVVQPGRSLRLSCAASGFSFSGYGMHWVRQAPGKGLEWVAYISYDASNKYYADNVKGRFTISRDNSKNTLYLQMNSLRAEDTAVYYCAKDPAWGLRLGESSSYDFDIWGQGTMVTVSS ?
OUTPUT: 0.333
